# method-description: Pharmacokinetics analysis in mice (oral; plasma and brain)
# Assay type: in vivo
# settings: male, C57BL/6J, mouse, brain, 30 mg/kg, 2 h, read-out: Brain to plasma ratio 2 h
measurement-label: Kp at 2 h
Numbers only.

Input line: For Cc1cc([C@H]2CN(c3cc(F)c4c(N)nncc4c3)CCN2c2cccc(F)c2)no1 [Compound (R)-8] , what is its reported Kp at 2 h?
Output line: 1.7

###

# method-description: Pharmacokinetics analysis in mice (oral; plasma and brain)
# Assay type: in vivo
# settings: male, C57BL/6J, mouse, brain, 30 mg/kg, 24 h
measurement-label: concentration at 24 h
The reply should consist of the numeric value with the unit placed after it.

Input line: For Cc1cc([C@H]2CN(c3cc(F)c4c(N)nncc4c3)CCN2c2cccc(F)c2)no1 [Compound (R)-8] , what is its reported concentration at 24 h?
Output line: 8.9 ng/g

###

# assay-target: human factor D (Homo sapiens, UniProt P00746)
# Construct: Recombinant human factor D (26–253 aa) fused with both the N-terminal IgG signal peptide; IgG signal peptide (N); His tag (C); made in house; host or cells: Expi293 cells
# Sequence (P00746 26-253): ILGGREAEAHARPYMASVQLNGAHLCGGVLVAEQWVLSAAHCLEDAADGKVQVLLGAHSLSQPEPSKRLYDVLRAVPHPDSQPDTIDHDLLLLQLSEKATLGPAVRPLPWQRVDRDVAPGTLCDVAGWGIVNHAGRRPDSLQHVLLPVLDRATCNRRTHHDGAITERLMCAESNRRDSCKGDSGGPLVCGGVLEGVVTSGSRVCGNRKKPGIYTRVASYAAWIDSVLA
# method-description: Human factor D enzyme assay
# Format: biochemical
pIC50: −log10 of the molar value.
measurement-label: pIC50

Input line: For Cc1ccccc1C(=O)N1CCN(c2ccc3c(N)nncc3c2)CC1 [Compound 4e] , what is its reported pIC50?
Output line: < 4.52

###

# assay-target: human trypsin
# method-description: Human trypsin enzyme assay
# Type: biochemical
measurement-label: IC50

Input line: For `Cc1ccccc1C(=O)N1CCN(c2ccc3c(N)nncc3c2)CC1` , what is its reported IC50?
Output line: > 30 µM

###

# assay-target: mouse C1s (Mus musculus, UniProt Q8CG14)
# Construct: Recombinant mouse C1s (22–694 aa) fused with both the N-terminal IgG signal peptide; IgG signal peptide (N); His tag (C)
# Sequence (Q8CG14 438-688 limits assumed): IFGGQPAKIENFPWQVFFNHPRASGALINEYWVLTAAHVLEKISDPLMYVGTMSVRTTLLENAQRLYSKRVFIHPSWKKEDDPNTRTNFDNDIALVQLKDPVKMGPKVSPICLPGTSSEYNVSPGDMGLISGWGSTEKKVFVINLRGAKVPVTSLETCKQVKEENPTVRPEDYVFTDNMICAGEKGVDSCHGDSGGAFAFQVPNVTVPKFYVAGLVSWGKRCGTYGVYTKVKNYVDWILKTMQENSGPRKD
# Sequence (Q8CG14 16-437 partner limits assumed): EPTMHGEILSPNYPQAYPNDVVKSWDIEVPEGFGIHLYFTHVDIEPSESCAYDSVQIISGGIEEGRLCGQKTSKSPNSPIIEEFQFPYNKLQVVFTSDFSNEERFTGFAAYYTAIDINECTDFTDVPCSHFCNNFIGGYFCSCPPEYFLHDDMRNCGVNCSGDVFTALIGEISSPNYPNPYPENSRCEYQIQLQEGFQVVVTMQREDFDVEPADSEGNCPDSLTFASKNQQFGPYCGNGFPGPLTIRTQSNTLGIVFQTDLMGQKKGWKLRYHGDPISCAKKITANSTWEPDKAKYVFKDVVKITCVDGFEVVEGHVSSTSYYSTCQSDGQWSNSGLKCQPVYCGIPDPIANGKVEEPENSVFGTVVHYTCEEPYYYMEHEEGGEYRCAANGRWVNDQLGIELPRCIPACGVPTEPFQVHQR
# method-description: Mouse C1s enzyme assay
# settings: supplementary csv
measurement-label: pIC50
Give bare numbers, as −log10 of the molar value.

Input line: For Cc1cc([C@H]2CN(c3cc(F)c4c(N)nncc4c3)CCN2c2cccc(F)c2)no1 [Compound (R)-8] , what is its reported pIC50?
Output line: 7.21
